Assay: Displacement of [3H]nicotin from nicotinic ACh receptor
assay metric: pIC50
Answers are plain numbers, as −log10 of the molar value.

# batch size: 4; output pIC50 per entry
1. C=CC[C@H]1NC[C@H]2C[C@@H]1[C@H]1CC(=O)C=CN1C2 [ALBINE]
2. CN1C[C@@H]2C[C@H](C1)c1cccc(=O)n1C2
3. O=C1[C@H]2C[C@@H](CN3CCCC[C@@H]23)[C@H]2CCCCN12
4. O=C1CCC[C@@H]2[C@H]3C[C@@H](CN12)[C@@H]1C[C@H](O)CCN1C3

[3.71, 7.30, 3.81, 3.31]

---

Assay: Displacement of [3H]quinuclidinyl benzilate from muscarinic ACh receptor
assay metric: IC50
Entry format: amount then unit.

Illustrative cases are given below, each with its answer.
structure smiles	IC50
O=C1[C@H](O)CC[C@@H]2[C@H]3C[C@@H](CN12)[C@@H]1CCCCN1C3	74 µM
OC[C@@H]1CCCN2CCCC[C@H]12	190 µM
C=CC[C@H]1NC[C@H]2C[C@@H]1[C@H]1CC(=O)C=CN1C2	33 µM
C=CC[C@@H]1NC[C@@H]2C[C@H]1CN1C(=O)CCC[C@H]21	25 µM

Below: the item to evaluate.
Param item = O=C1[C@H]2C[C@@H](CN3CCCC[C@@H]23)[C@H]2CCCCN12 ; retrieve measured IC50.
118 µM

---

Assay: Displacement of [3H]nicotin from nicotinic ACh receptor
assay metric: IC50 (µM)
Give bare numbers, in µM.

compound	IC50, µM
O=c1cccc2n1C[C@@H]1CNC[C@H]2C1	0.14

# batch size: 3; output IC50 per entry
1. C=CCCN1C[C@H]2C[C@@H](C1)[C@H]1CCCC(=O)N1C2 [TETRAHYDRORHOMBIFOLINE]
2. O=C1[C@H](O)CC[C@@H]2[C@H]3C[C@@H](CN12)[C@@H]1CCCCN1C3
3. O=C1CCC[C@@H]2[C@H]3C[C@@H](CN12)[C@@H]1CCCCN1C3

1. 310
2. 190
3. 5

# batch size: 2; output IC50 per entry
1. C1CCN2C[C@@H]3C[C@@H](CN4CCCC[C@@H]34)[C@H]2C1
2. O=c1cccc2n1C[C@H]1C[C@@H]2CN2CCCC[C@H]12

1. 331
2. 2100

---

Assay: Displacement of [3H]quinuclidinyl benzilate from muscarinic ACh receptor
assay metric: IC50

Illustrative cases are given below, each with its answer.
compound	IC50
C=CCCN1C[C@H]2C[C@@H](C1)[C@H]1CCCC(=O)N1C2 [TETRAHYDRORHOMBIFOLINE]	129 µM
O=C1CCC[C@@H]2[C@H]3C[C@@H](CN12)[C@@H]1C[C@H](O)CCN1C3	140 µM
O=c1cccc2n1C[C@H]1C[C@@H]2CN2CCCC[C@H]12	132 µM
O=c1cccc2n1C[C@@H]1CNC[C@H]2C1	400 µM
CN1C[C@@H]2C[C@H](C1)c1cccc(=O)n1C2	417 µM
C1CCN2C[C@@H]3C[C@@H](CN4CCCC[C@@H]34)[C@H]2C1	21 µM

# batch size: 2; output IC50 per entry
1. O=C1C=CN2C[C@@H]3C[C@@H](CN4CCCC[C@@H]34)[C@H]2C1
2. O=C1CCC[C@@H]2[C@H]3C[C@@H](CN12)[C@@H]1CCCCN1C3

["47 µM", "114 µM"]

Value source: ChEMBL document CHEMBL1148066
